Value source: ChEMBL document CHEMBL3885861

Species: Rattus norvegicus
assay: Open TG-GATES - Regimen: Daily Repeat
Format: toxicity, organism-based, Sprague-Dawley
Set-up: regimen Daily Repeat, gender Male, age 6 weeks
condition-label: in vivo, po, 0 mg/kg, 72 h, tissue Kidney, route gavage, dose level Control, time 3 day
Assign KIDNEY_TOTAL to each entry below.
// unit must come after the numeric part

Worked cases, KIDNEY_TOTAL given:
Cc1cccc(C)c1OCC(C)N (stereo unspecified) [MEXILETINE] = 2.2 g
CCOC(=O)C(C)(C)Oc1ccc(Cl)cc1 [CLOFIBRATE] = 2.1 g

Below are some compounds; for each one, tell me its KIDNEY_TOTAL.
1. C[C@H]1C(=O)O[C@@H]2CCN3CC=C(COC(=O)[C@](C)(O)[C@]1(C)O)[C@H]23 [MONOCROTALINE]
2. C[C@H]1O[C@H](O[C@H]2[C@H](O)[C@@H](O)[C@@H](O[C@H]3[C@H](O)[C@@H](O)C(O)O[C@@H]3CO)O[C@@H]2CO)[C@H](O)[C@@H](O)[C@@H]1N[C@H]1C=C(CO)[C@@H](O)[C@H](O)[C@H]1O (stereo partly specified) [ACARBOSE]
3. O=C1CN(/N=C/c2ccc([N+](=O)[O-])o2)C(=O)N1 [NITROFURANTOIN]
4. OCCN1CCN(CCCN2c3ccccc3Sc3ccc(C(F)(F)F)cc32)CC1 [FLUPHENAZINE]

(A)
1. 2.1 g
2. 2 g
3. 2.1 g
4. 2.2 g

====

Assign PL to each entry below.
Organism: Rattus norvegicus
assay: Open TG-GATES - Regimen: Daily Repeat
Assay type: toxicity, organism-based, Sprague-Dawley
Parameters: regimen Daily Repeat, gender Male, age 6 weeks
condition-label: in vivo, po, 0 mg/kg, […], tissue Plasma, route gavage, dose level Control, time 14 day
One number for each entry, in mg/dL.

Below are some molecules; for each one, tell me its PL.
1. C[C@H]1C(=O)O[C@@H]2CCN3CC=C(COC(=O)[C@](C)(O)[C@]1(C)O)[C@H]23
2. C=C(C)[C@H]1Cc2c(ccc3c2O[C@@H]2COc4cc(OC)c(OC)cc4[C@@H]2C3=O)O1
3. C[C@H]1O[C@H](O[C@H]2[C@H](O)[C@@H](O)[C@@H](O[C@H]3[C@H](O)[C@@H](O)C(O)O[C@@H]3CO)O[C@@H]2CO)[C@H](O)[C@@H](O)[C@@H]1N[C@H]1C=C(CO)[C@@H](O)[C@H](O)[C@H]1O (some centres undefined)
4. O=C1CN(/N=C/c2ccc([N+](=O)[O-])o2)C(=O)N1
5. CCOC(=O)C(C)(C)Oc1ccc(Cl)cc1 [CLOFIBRATE]

(A)
1. 144
2. 156
3. 161.4
4. 153.2
5. 148

====

Organism: Rattus norvegicus
assay: Open TG-GATES - Regimen: Daily Repeat
Type: toxicity, organism-based, Sprague-Dawley
Parameters: regimen Daily Repeat, gender Male, age 6 weeks
condition-label: in vivo, po, 0 mg/kg, […], tissue Kidney, route gavage, dose level Control, time 14 day
readout: KIDNEY_TOTAL (g)
Numbers only, in g.

Worked cases, KIDNEY_TOTAL given:
C[C@H]1C(=O)O[C@@H]2CCN3CC=C(COC(=O)[C@](C)(O)[C@]1(C)O)[C@H]23 = 2.5
C[C@H]1O[C@H](O[C@H]2[C@H](O)[C@@H](O)[C@@H](O[C@H]3[C@H](O)[C@@H](O)C(O)O[C@@H]3CO)O[C@@H]2CO)[C@H](O)[C@@H](O)[C@@H]1N[C@H]1C=C(CO)[C@@H](O)[C@H](O)[C@H]1O (stereo partly drawn) = 2.3

(Q) Answer with the recorded KIDNEY_TOTAL for the compound listed here: O=C1CN(/N=C/c2ccc([N+](=O)[O-])o2)C(=O)N1
(A) 2.6
